Assign 15-LOX assay % inhibition to each entry below.
- system-under-test: 15-LOX from soybean (Glycine max)
- protocol-summary: 15-lipoxygenase inhibition assay
- Format: biochemical
- condition-label: at the highest test concentration
- Description: The soybean LOX assay is used as an indication of anti-inflammatory activity ([Muller, 1994]), and therefore during the present investigation, 15-LOX from soybean was used for peroxidation of linoleic acid, and inhibition was measured as described previously with slight modifications ([Malterud and Rydland, 2000]). […] Absorbance was recorded immediately after the addition of 500 μL of substrate (250 μM linoleic acid in 0.2 M borate buffer, pH 9) every minute up to 5 min at 234 nm. […]
Mention the unit after the number when you answer.

Incoming: Reported 15-LOX assay % inhibition for COC(=O)C1=COC(OC2OC(CO)C(O)C(O)C2O)C2C1CCC2(C)O (stereo not shown) [Compound 3, Mussaenoside] : what is it?
Outgoing: 37%

Incoming: // query 15-LOX assay % inhibition value for entry CC1(O)C(Cl)C(O)C2(O)C=COC(OC3OC(CO)C(O)C(O)C3O)C12 (stereo not shown) [Compound 4, Linarioside]
Outgoing: 8%

Incoming: Give the measured 15-LOX assay % inhibition of CO[C@H]1C[C@@]2(O)[C@H](O)[C@@H](O)[C@](C)(OC)[C@H]2[C@@H](OC)O1 .
Outgoing: 30%

Incoming: I would be grateful if you could share the reported 15-LOX assay % inhibition for COC(=O)c1ccc(O)cc1 [Compound 7, 4-Hydroxy benzoic acid methyl ester] .
Outgoing: 30%

----------
- system-under-test: α-glucosidase from Saccharomyces cerevisiae (Saccharomyces cerevisiae)
measurement-name: IC50
A complete answer gives the number and then names the unit.

Incoming: Any idea what its IC50 is? The compound is COc1ccc(-c2cc(=O)c3c(O)c(OC)c(O)cc3o2)cc1 [Compound 5, Pectolinarigenin]
Outgoing: 230 µM

----------
- system-under-test: α-glucosidase from Saccharomyces cerevisiae (Saccharomyces cerevisiae, UniProt P53341)
- Construct: purchased Sigma-Aldrich
- Sequence (P53341 whole entry): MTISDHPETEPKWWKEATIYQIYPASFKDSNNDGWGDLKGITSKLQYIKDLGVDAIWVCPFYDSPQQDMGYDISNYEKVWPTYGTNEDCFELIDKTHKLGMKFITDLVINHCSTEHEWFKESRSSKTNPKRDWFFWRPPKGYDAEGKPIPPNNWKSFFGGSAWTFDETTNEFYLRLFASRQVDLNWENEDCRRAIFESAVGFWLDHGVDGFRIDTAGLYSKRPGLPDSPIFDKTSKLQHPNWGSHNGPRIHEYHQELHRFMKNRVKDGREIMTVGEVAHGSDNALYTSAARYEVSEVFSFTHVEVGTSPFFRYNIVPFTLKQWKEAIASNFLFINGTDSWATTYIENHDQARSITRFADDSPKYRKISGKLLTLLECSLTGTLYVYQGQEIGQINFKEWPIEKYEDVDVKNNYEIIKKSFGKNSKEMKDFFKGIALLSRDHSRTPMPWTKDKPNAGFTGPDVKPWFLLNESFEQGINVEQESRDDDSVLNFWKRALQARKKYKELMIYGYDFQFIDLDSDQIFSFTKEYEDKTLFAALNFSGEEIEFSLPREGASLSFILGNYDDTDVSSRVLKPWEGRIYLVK
- protocol-summary: α-glucosidase inhibition assay
- Format: biochemical
- Parameters: dose or concentration left out as unconfirmed
- condition-label: read-out: α-glucosidase % inhibition
measurement-name: inhibition (%)
Quick note: give the figure in %, leave out the unit.

Incoming: GET /values?readout=inhibition&item= COC(=O)c1ccc(O)cc1 [Compound 7, 4-Hydroxy benzoic acid methyl ester]
Outgoing: 47

Incoming: What inhibition value was documented for this compound, COC(=O)C1=COC(OC2OC(CO)C(O)C(O)C2O)C2C1CCC2(C)O (centres unmarked) [Compound 3, Mussaenoside] ?
Outgoing: 9

Incoming: Sample CC1(O)C(Cl)C(O)C2(O)C=COC(OC3OC(CO)C(O)C(O)C3O)C12 (centres unmarked) [Compound 4, Linarioside] — what was its inhibition?
Outgoing: 29

Incoming: What value of inhibition has been recorded for this entry: CC1(O)CCC2C(C(=O)O)=COC(OC3OC(CO)C(O)C(O)C3O)C21 (centres unmarked)
Outgoing: 15

Incoming: Recorded inhibition of COc1ccc(-c2cc(=O)c3c(O)c(OC)c(O[C@@H]4O[C@H](CO[C@@H]5O[C@@H](C)[C@H](O)[C@@H](O)[C@H]5O)[C@@H](O)[C@H](O)[C@H]4O)cc3o2)cc1 , please.
Outgoing: 48

----------
- system-under-test: 15-LOX from soybean (Glycine max, UniProt P08170)
- Sequence (P08170 1-839): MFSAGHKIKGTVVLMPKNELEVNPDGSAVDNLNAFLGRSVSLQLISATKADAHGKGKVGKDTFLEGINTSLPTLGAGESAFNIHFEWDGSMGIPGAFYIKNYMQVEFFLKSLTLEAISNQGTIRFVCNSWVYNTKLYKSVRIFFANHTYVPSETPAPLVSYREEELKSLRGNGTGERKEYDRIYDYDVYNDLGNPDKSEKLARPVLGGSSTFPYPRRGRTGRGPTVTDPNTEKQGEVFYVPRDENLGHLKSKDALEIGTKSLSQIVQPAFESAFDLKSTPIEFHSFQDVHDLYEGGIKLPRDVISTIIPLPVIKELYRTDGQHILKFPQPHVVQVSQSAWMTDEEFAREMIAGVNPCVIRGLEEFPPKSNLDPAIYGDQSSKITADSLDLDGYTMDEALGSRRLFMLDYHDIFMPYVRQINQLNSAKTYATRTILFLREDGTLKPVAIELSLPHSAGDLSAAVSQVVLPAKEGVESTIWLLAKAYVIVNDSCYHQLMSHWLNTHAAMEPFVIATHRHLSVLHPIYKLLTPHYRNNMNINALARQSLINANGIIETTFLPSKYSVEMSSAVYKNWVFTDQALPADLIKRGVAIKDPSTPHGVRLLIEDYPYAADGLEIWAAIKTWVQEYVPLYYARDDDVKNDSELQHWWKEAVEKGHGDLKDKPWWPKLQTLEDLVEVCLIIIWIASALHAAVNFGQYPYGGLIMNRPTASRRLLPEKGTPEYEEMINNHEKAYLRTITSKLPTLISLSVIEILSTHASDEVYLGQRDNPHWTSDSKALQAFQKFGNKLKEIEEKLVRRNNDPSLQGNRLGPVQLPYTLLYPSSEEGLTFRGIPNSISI
- protocol-summary: 15-lipoxygenase inhibition assay
- Format: biochemical
- Protocol: The soybean LOX assay is used as an indication of anti-inflammatory activity ([Muller, 1994]), and therefore during the present investigation, 15-LOX from soybean was used for peroxidation of linoleic acid, and inhibition was measured as described previously with slight modifications ([Malterud and Rydland, 2000]). […] Absorbance was recorded immediately after the addition of 500 μL of substrate (250 μM linoleic acid in 0.2 M borate buffer, pH 9) every minute up to 5 min at 234 nm. […]
measurement-name: IC50 (µM)
A number alone suffices; assume µM.

Incoming: Look up IC50: CC1(O)CCC2C(C(=O)O)=COC(OC3OC(CO)C(O)C(O)C3O)C21 (stereo not shown) [Compound 2, Mussaenosidic acid]
Outgoing: 220
